# targetOrSystem: T1, EsCas13d, nuclease-dead (Eubacterium siraeum, UniProt B0MS50, R295A;H300A;R849A;H854A)
# T1 sequence: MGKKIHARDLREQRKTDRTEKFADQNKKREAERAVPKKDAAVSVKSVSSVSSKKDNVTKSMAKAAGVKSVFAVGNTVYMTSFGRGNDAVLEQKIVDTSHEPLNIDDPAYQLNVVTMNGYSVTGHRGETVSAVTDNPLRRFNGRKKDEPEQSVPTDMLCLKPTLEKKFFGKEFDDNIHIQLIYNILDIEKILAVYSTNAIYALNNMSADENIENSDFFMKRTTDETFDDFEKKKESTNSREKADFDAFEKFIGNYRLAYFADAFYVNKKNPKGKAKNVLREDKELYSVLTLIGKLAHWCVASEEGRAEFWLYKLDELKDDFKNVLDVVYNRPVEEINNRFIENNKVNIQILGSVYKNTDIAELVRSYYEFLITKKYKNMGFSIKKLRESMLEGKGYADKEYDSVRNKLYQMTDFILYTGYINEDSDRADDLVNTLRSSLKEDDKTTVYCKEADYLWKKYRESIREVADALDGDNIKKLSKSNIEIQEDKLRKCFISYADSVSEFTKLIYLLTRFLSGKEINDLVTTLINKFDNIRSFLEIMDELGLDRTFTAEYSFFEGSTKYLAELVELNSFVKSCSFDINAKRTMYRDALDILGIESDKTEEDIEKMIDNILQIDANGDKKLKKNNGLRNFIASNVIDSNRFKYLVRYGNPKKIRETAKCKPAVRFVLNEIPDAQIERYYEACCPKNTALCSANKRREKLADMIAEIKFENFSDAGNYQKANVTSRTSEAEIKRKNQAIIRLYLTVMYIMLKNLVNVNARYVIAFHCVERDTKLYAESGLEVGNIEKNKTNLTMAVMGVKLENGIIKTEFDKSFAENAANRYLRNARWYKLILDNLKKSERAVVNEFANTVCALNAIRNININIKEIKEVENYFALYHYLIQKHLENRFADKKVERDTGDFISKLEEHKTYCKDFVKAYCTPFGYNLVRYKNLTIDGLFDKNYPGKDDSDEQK
# testMethodNotes: crRNA (strand 1, pre-loaded); Mg2+; 40 mM Tris-HCl pH 7.5, 150 mM NaCl, 6 mM MgCl2, 1 mM DTT, 0.1% Tween-20, 0.2 mg/ml BSA; 25 C; 10 min per concentration, then washed
# studyConditions: tags: His6-TwinStrep-SUMO cleaved; N-terminal SNAP kept (SNAP-Surface 488); label: 3' end held by stalled T7 RNA polymerase
Listed below: pKd values for each entry.
For clarity, pKd is expressed as the negative log10 of concentration in mol/L.

- binder: "target 2 MT 5'PFS GGA 3'PFS UCG (mixed) RNA 1: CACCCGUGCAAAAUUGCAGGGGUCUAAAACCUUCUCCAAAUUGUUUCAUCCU RNA 2: GGGAAUGGAUCCACAUCUACGAAUUCGGAAGGAUGAAACAAUUUGGAGAAGUCGAGAUCGGAAGAGCACACGU"
  valueReported: 7.76
- binder: "target 1 G17C,C22U (mixed) RNA 1: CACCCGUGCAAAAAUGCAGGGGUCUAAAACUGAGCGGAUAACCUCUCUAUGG RNA 2: GGGAAUGGAUCCACAUCUACGAAUUCGUAUCAUACAGAGGUUAUCCGCUCACCGAGAUCGGAAGAGCACACGU"
  valueReported: 7.21

Now for the binder whose pKd we want.
Lookup: Need pKd, item target 2 MT 5'PFS UGC 3'PFS UAU (mixed) RNA 1: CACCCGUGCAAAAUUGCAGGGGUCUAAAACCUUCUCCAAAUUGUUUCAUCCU RNA 2: GGGAAUGGAUCCACAUCUACGAAUUCUGCAGGAUGAAACAAUUUGGAGAAGUAUAGAUCGGAAGAGCACACGU
Found: 7.84
